measurement-description: Selectivity index, ratio of CC50 for mouse L929 cells to IC50 for Trypanosoma cruzi trypomastigotes
Type: toxicity
recorded-conditions: read-out: Ratio CC50/IC50

# structure-smiles, selectivity ratio
measured = [
    ("C=CCCCCCCC#CCCCCCCCCCCC1=C(O)[C@@H](C)OC1=O", "> 55.6"),
    ("C=CCCCCCCC#CCCCCCCCCCC[C@@H]1C(=O)O[C@H](C)[C@@H]1O", "> 25.6"),
    ("C=CCCCCCCC#CCCCCCCCCCCC1=C(O)C(=C)OC1=O", 200),
    ("CCCCCCCCC#CCCCCCCCC(=O)O", "> 7.2"),
]

Values were extracted from ChEMBL document CHEMBL4316656.
